- Tested on: E. coli AG100A
- measurementNotes: microbe, parasite or virus in culture
- Type: cell-based
- particulars: Escherichia coli, read-out: MIC E. coli AG100A
- Source text: To determine the ability of test compounds to potentiate the inhibition of the growth of bacterial strains, classic cell based broth microdilution minimum inhibitory concentration (MIC) assays were employed. […] Briefly, cryo-preserved bacterial cultures of challenge strains are streaked for isolation on appropriate agar medium, in this case Mueller Hinton II agar. […] The MIC values are read visually as the lowest concentration well with no bacterial growth.
For each record, write down the corresponding MIC.

# MIC lookup, item O=C(O)c1cccc2c1OB(O)[C@@H](NC(=O)C(NC(=O)N1C[C@H]3CCCN3C(=O)C1=O)c1ccc(O)c(O)c1Cl)C2 (stereo partly shown) [Example 232]
8 to 16 mg/L

What do we get for NCCCN1CCN(C(=O)N[C@@H](C(=O)N[C@H]2Cc3ccc(F)c(C(=O)O)c3OB2O)c2ccc(O)c(O)c2Cl)C(=O)C1=O [Example 236] ?
0.5 to 1 mg/L

What do we get for CCN1CCN(C(=O)NC(C(=O)N[C@H]2Cc3ccc(F)c(C(=O)O)c3OB2O)c2ccc(O)c(O)c2Cl)C(=O)C1=O (stereo partly shown) [Example 124] ?
0.5 to 1 mg/L

What do we get for CCN1CCN(C(=O)NC(C(=O)N[C@H]2Cc3ccc(F)c(C(=O)O)c3OB2O)c2ccc(S(N)(=O)=O)cc2)C(=O)C1=O (stereo partly shown) [Example 181] ?
32 to 64 mg/L

What do we get for O=C(O)c1cccc2c1OB(O)[C@@H](NC(=O)C(NC(=O)c1c[nH]ccc1=O)c1ncc(O)cc1F)C2 (stereo partly shown) [Example 219] ?
8 to 16 mg/L

What do we get for NCCN1CCN(C(=O)N[C@@H](C(=O)N[C@H]2Cc3ccc(F)c(C(=O)O)c3OB2O)c2ccc(O)c(O)c2Cl)C(=O)C1=O [Example 227] ?
< 0.25 mg/L

What do we get for CCN1CCN(C(=O)NC(C(=O)N[C@H]2Cc3cccc(C(=O)O)c3OB2O)c2ncccn2)C(=O)C1=O (stereo partly shown) [Example 111] ?
2 to 4 mg/L

What do we get for O=C(O)c1cccc2c1OB(O)[C@@H](NC(=O)C(NC(=O)N1C[C@@H]3CCCN3C(=O)C1=O)c1ncc(O)cc1F)C2 (stereo partly shown) [Example 223] ?
32 to 64 mg/L

What do we get for CCN1CCN(C(=O)N[C@@H](C(=O)N[C@H]2Cc3ccc(F)c(C(=O)O)c3OB2O)c2ccc(O)c(O)c2Cl)C(=O)C1=O [Example 189] ?
0.5 to 1 mg/L

What do we get for CCN1CCN(C(=O)N[C@@H](C(=O)N[C@H]2Cc3cccc(C(=O)O)c3OB2O)c2ncc(O)cc2F)C(=O)C1=O [Example 177] ?
0.5 to 1 mg/L

What do we get for NCCN1CCN(C(=O)N[C@H](C(=O)N[C@H]2Cc3ccc(F)c(C(=O)O)c3OB2O)c2ncc(O)cc2F)C(=O)C1=O [Example 231] ?
8 to 16 mg/L

What do we get for NCCN1CCN(C(=O)N[C@@H](C(=O)N[C@H]2Cc3cccc(C(=O)O)c3OB2O)c2ncc(O)cc2F)C(=O)C1=O [Example 225] ?
0.5 to 1 mg/L

What do we get for CCN1CCN(C(=O)NC(C(=O)N[C@H]2Cc3ccc(F)c(C(=O)O)c3OB2O)c2ccc(O)c(O)c2Cl)C(O)C1=O (stereo partly shown) [Example 194] ?
8 to 16 mg/L

----------
- System: K. pneumoniae 848844
- measurementNotes: microbe, parasite or virus in culture
- Type: cell-based, Klebsiella pneumoniae
- particulars: Klebsiella pneumoniae; K. pneumoniae 848844 producing SHV-11 and KPC-2; read-out: MIC K. pneumoniae 848844
For each record, write down the corresponding MIC.

# MIC lookup, item O=C(O)CN1CCN(C(=O)NC(C(=O)N[C@H]2Cc3cccc(C(=O)O)c3OB2O)c2ccc(O)c(O)c2Cl)C(=O)C1=O (stereo partly shown)
2 to 4 µg/mL

What do we get for CCN1CCN(C(=O)NC(C(=O)N[C@H]2Cc3cccc(C(=O)O)c3OB2O)c2ccc[n+](CC(=O)[O-])c2)C(=O)C1=O (stereo partly shown) ?
> 128 µg/mL

What do we get for O=C(O)c1cccc2c1OB(O)[C@@H](NC(=O)C(NC(=O)N1CCN(CCF)C(=O)C1=O)c1ncc(O)cc1F)C2 (stereo partly shown) ?
32 to 64 µg/mL

What do we get for CCN1CCN(C(=O)NC(C(=O)N[C@H]2Cc3cccc(C(=O)O)c3OB2O)c2ccc(N)nc2)C(=O)C1=O (stereo partly shown) ?
32 to 64 µg/mL

What do we get for CC(=O)NCCN1CCN(C(=O)NC(C(=O)N[C@H]2Cc3cccc(C(=O)O)c3OB2O)c2ccc(O)c(O)c2Cl)C(=O)C1=O (stereo partly shown) ?
2 to 4 µg/mL

What do we get for O=C(O)c1cccc2c1OB(O)[C@@H](NC(=O)C(NC(=O)N1CCN(CCF)C(=O)C1=O)c1ccc(S(=O)(=O)NCCO)cc1)C2 (stereo partly shown) ?
> 128 µg/mL

What do we get for NCCN1CCN(C(=O)N[C@@H](C(=O)N[C@H]2Cc3ccc(F)c(C(=O)O)c3OB2O)c2ncc(O)cc2F)C(=O)C1=O ?
32 to 64 µg/mL

What do we get for CCN1CCN(C(=O)NC(C(=O)N[C@H]2Cc3cccc(C(=O)O)c3OB2O)c2ccc(C(=O)O)cc2)C(=O)C1=O (stereo partly shown) ?
> 128 µg/mL

What do we get for CCN1CCN(C(=O)NC(C(=O)N[C@H]2Cc3cccc(C(=O)O)c3OB2O)c2ccc(C(N)=O)cc2)C(=O)C1=O (stereo partly shown) ?
> 128 µg/mL

What do we get for NS(=O)(=O)c1ccc([C@@H](NC(=O)N2CCN(CCF)C(=O)C2=O)C(=O)N[C@H]2Cc3cccc(C(=O)O)c3OB2O)cc1O ?
32 to 64 µg/mL

What do we get for CCN1CCN(C(=O)NC(C(=O)N[C@H]2Cc3ccc(F)c(C(=O)O)c3OB2O)c2ccc(O)cn2)C(=O)C1=O (stereo partly shown) ?
32 to 64 µg/mL

What do we get for CCN1CCN(C(=O)NC(C(=O)N[C@H]2Cc3cccc(C(=O)O)c3OB2O)c2ncc(O)cc2Cl)C(=O)C1=O (stereo partly shown) ?
> 128 µg/mL

What do we get for NCCN1CCN(C(=O)N[C@@H](C(=O)N[C@H]2Cc3ccc(F)c(C(=O)O)c3OB2O)c2ccc(O)c(O)c2Cl)C(=O)C1=O ?
0.5 to 1 µg/mL

----------
For each record, write down the corresponding MIC.
- Tested on: E. coli AG100
- measurementNotes: Broth microdilution MIC, E. coli AG100 (wild-type parent)
- Type: cell-based
- particulars: Escherichia coli; wild-type parent E. coli AG100, broth microdilution; read-out: MIC E. coli AG100
- Description: To determine the ability of test compounds to potentiate the inhibition of the growth of bacterial strains, classic cell based broth microdilution minimum inhibitory concentration (MIC) assays were employed. Briefly, cryo-preserved bacterial cultures of challenge strains are streaked for isolation on appropriate agar medium, in this case Mueller Hinton II agar. […] The MIC values are read visually as the lowest concentration well with no bacterial growth.

# MIC lookup, item NCCN1CCN(C(=O)N[C@H](C(=O)N[C@H]2Cc3cccc(C(=O)O)c3OB2O)c2ccc(O)c(O)c2Cl)C(=O)C1=O
8 to 16 µg/mL

What do we get for CCN1C[C@H](C)N(C(=O)NC(C(=O)N[C@H]2Cc3ccc(F)c(C(=O)O)c3OB2O)c2ccc(O)c(O)c2Cl)C(=O)C1=O (stereo partly drawn) ?
0.5 to 1 µg/mL

What do we get for CCN1CCN(C(=O)N[C@H](C(=O)N[C@H]2Cc3cccc(C(=O)O)c3OB2O)c2ccc(S(N)(=O)=O)c(OC)c2)C(=O)C1=O ?
> 128 µg/mL

What do we get for NS(=O)(=O)c1ccc(C(NC(=O)N2CCN(CCF)C(=O)C2=O)C(=O)N[C@H]2Cc3cccc(C(=O)O)c3OB2O)c(F)c1 (stereo partly drawn) ?
32 to 64 µg/mL

What do we get for NCCCN1CCN(C(=O)N[C@@H](C(=O)N[C@H]2Cc3ccc(F)c(C(=O)O)c3OB2O)c2ccc(O)c(O)c2Cl)C(=O)C1=O ?
0.5 to 1 µg/mL

What do we get for CCN1CCN(C(=O)NC(C(=O)N[C@H]2Cc3ccc(F)c(C(=O)O)c3OB2O)c2ncc(O)cc2F)C(=O)C1=O (stereo partly drawn) ?
8 to 16 µg/mL

----------
- Test system: N. gonorrhoeae WHO F
- measurementNotes: Liquid broth MIC, N. gonorrhoeae WHO F
- Type: cell-based
- particulars: Neisseria gonorrhoeae; N. gonorrhoeae WHO F, liquid broth; read-out: Minimum Inhibitory Concentration, N. gonorrhoeae WHO F
For each record, write down the corresponding MIC.

# MIC lookup, item CNCCN1CCN(C(=O)NC(C(=O)N[C@H]2Cc3cccc(C(=O)O)c3OB2O)c2ccc(O)c(O)c2Cl)C(=O)C1=O (stereo partly drawn)
4 to 8 µg/mL

What do we get for CCN1CCN(C(=O)NC(C(=O)N[C@H]2Cc3cccc(C(=O)O)c3OB2O)c2ccc(S(N)(=O)=O)c(F)c2)C(=O)C1=O (stereo partly drawn) ?
< 0.125 µg/mL

What do we get for CCN1CCN(C(=O)NC(C(=O)N[C@H]2Cc3cccc(C(=O)O)c3OB2O)c2ccc(O)c(O)c2F)C(=O)C1=O (stereo partly drawn) ?
< 0.125 µg/mL
